Origin of the recorded values: paper PMC7024302

Tested on: C. albicans ATCC 10231
Type: cell-based, Candida albicans
study-conditions: ATCC 10231, 24 h, pH 7
Residues, ends and D or L forms follow the SMILES beside them.
readout-kind: MIC CA (µg/mL)

Would you please look over these solved cases?
{"molecule": "CCCCCCCCCCCCCC(=O)N[C@@H](CCC(=O)O)C(=O)N[C@@H](CCCNC(=N)N)C(=O)N[C@@H](CCCNC(=N)N)C(N)=O [compound 22, C14-ERR-NH2] (HELM PEPTIDE1{[CCCCCCCCCCCCCC(=O)[*:2]].E.R.R.[am]}$$$$V2.0)", "assay-target": "C. albicans ATCC 10231", "experimental-result": 32}
{"molecule": "CCCCCCCCCC(=O)N[C@@H](CCCC)C(=O)N[C@@H](CCCNC(=N)N)C(=O)N[C@@H](CCCNC(=N)N)C(N)=O [compound 64, C10-NleRR-NH2] (HELM PEPTIDE1{[CCCCCCCCCC(=O)[*:2]].[Nle].R.R.[am]}$$$$V2.0)", "assay-target": "C. albicans ATCC 10231", "experimental-result": 64}
{"molecule": "CCCCCCCCCCCCCC(=O)N[C@@H](CCC(N)=O)C(=O)N[C@@H](CCCNC(=N)N)C(=O)N[C@@H](CCCNC(=N)N)C(N)=O [compound 78, C14-QRR-NH2] (HELM PEPTIDE1{[CCCCCCCCCCCCCC(=O)[*:2]].Q.R.R.[am]}$$$$V2.0)", "assay-target": "C. albicans ATCC 10231", "experimental-result": 32}

[1] CCCCCCCCCCCCCC(=O)N[C@@H](CC(C)C)C(=O)N[C@@H](CCCNC(=N)N)C(=O)N[C@@H](CCCNC(=N)N)C(N)=O [compound 46, C14-LRR-NH2] (HELM PEPTIDE1{[CCCCCCCCCCCCCC(=O)[*:2]].L.R.R.[am]}$$$$V2.0)
[2] CCCCCCCCCCCC(=O)N[C@@H](CCSC)C(=O)N[C@@H](CCCNC(=N)N)C(=O)N[C@@H](CCCNC(=N)N)C(N)=O [compound 49, C12-MRR-NH2] (HELM PEPTIDE1{[CCCCCCCCCCCC(=O)[*:2]].M.R.R.[am]}$$$$V2.0)
[3] CCCCCCCCCCCC(=O)N[C@@H](CC(C)C)C(=O)N[C@@H](CCCNC(=N)N)C(=O)N[C@@H](CCCNC(=N)N)C(N)=O [compound 45, C12-LRR-NH2] (HELM PEPTIDE1{[CCCCCCCCCCCC(=O)[*:2]].L.R.R.[am]}$$$$V2.0)
(Q) // ranking: key=MIC CA, reverse=True State the ranking by listing the labels in the requested order.
(A) 2, 3, 1
(2: 32 µg/mL, 3: 16 µg/mL, 1: 4 µg/mL)

[A] CCCCCCCCCCCCCC(=O)N[C@@H](CCCNC(=N)N)C(=O)N[C@@H](CCCNC(=N)N)C(N)=O [compound 4, C14-RR-NH2, reference compound] (HELM PEPTIDE1{[CCCCCCCCCCCCCC(=O)[*:2]].R.R.[am]}$$$$V2.0)
[B] CCCCCCCCCC(=O)N[C@@H](Cc1ccccc1)C(=O)N[C@@H](CCCNC(=N)N)C(=O)N[C@@H](CCCNC(=N)N)C(N)=O [compound 24, C10-FRR-NH2] (HELM PEPTIDE1{[CCCCCCCCCC(=O)[*:2]].F.R.R.[am]}$$$$V2.0)
[C] CCCCCCCCCCCC(=O)N[C@H](C(=O)N[C@@H](CCCNC(=N)N)C(=O)N[C@@H](CCCNC(=N)N)C(N)=O)C(C)C [compound 93, C12-VRR-NH2] (HELM PEPTIDE1{[CCCCCCCCCCCC(=O)[*:2]].V.R.R.[am]}$$$$V2.0)
[D] CCCCCCCCCCCCCC(=O)N[C@@H](CCCC)C(=O)N[C@@H](CCCNC(=N)N)C(=O)N[C@@H](CCCNC(=N)N)C(N)=O [compound 66, C14-NleRR-NH2] (HELM PEPTIDE1{[CCCCCCCCCCCCCC(=O)[*:2]].[Nle].R.R.[am]}$$$$V2.0)
[E] CCCCCCCCCCCCCC(=O)NCC(=O)N[C@@H](CCCNC(=N)N)C(=O)N[C@@H](CCCNC(=N)N)C(N)=O [compound 30, C14-GRR-NH2]
(Q) Put the items in order so that reported MIC CA rises from first to last. State the ranking by listing the labels in the requested order.
(A) D, A, E, C, B
